Numbers sourced from BindingDB's records for doi:10.1021/jm960450v.

Target Entity: Integrase (Human immunodeficiency virus 1)
Sequence (Q7ZJM1 whole entry): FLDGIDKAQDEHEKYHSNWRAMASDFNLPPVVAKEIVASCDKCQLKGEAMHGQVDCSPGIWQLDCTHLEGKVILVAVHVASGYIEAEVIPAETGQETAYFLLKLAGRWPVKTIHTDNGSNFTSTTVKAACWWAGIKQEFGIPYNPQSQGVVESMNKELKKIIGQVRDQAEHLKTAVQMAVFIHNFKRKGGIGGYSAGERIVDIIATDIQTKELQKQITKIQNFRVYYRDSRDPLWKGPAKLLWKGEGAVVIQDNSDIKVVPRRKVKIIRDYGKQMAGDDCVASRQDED
Procedure Details: Integration of DNA by HIV -1 integrase
Would you kindly list IC50 for each of these compounds?
# output: numeric value plus its unit

// lookup IC50 for `O=c1oc2ccccc2c(O)c1C(c1cc(OCc2ccccc2)cc(OCc2ccccc2)c1)c1c(O)c2ccccc2oc1=O` 12 µM

Then `CN(C)c1ccc(C(c2c(O)c3ccccc3oc2=O)c2c(O)c3ccccc3oc2=O)cc1` ? 50 µM

Then `O=c1oc2ccccc2c(O)c1C(c1ccc2ccccc2c1)c1c(O)c2ccccc2oc1=O` ? 16 µM

---

Target Entity: Integrase (Human immunodeficiency virus 1)
Procedure Details: Inhibitory activity against 3'-processing of DNA by HIV-1 integrase
Recorded Endpoint: IC50 (µM)
Supply the numeric figure in µM, leaving out any unit text.

// lookup IC50 for `O=c1oc2ccccc2c(O)c1C(c1ccc2c(c1)Cc1ccccc1-2)c1c(O)c2ccccc2oc1=O` 11

Then `O=c1oc2ccccc2c(O)c1C(c1ccc2ccccc2c1)c1c(O)c2ccccc2oc1=O` ? 20

Then `O=c1oc2ccccc2c(O)c1C(c1ccc(-c2ccccc2)cc1)c1c(O)c2ccccc2oc1=O` ? 14

Then `O=c1oc2ccccc2c(O)c1C(c1cccs1)c1c(O)c2ccccc2oc1=O` ? 100

Then `O=c1oc2ccccc2c(O)c1C(c1ccc(OCc2ccccc2)cc1)c1c(O)c2ccccc2oc1=O` ? 19

Then `O=c1oc2ccccc2c(O)c1Cc1cccc(Cc2c(O)c3ccccc3oc2=O)c1` ? 34

Then `CN(C)c1ccc(C(c2c(O)c3ccccc3oc2=O)c2c(O)c3ccccc3oc2=O)cc1` ? 100

Then `O=c1oc2ccccc2c(O)c1C(c1ccco1)c1c(O)c2ccccc2oc1=O` ? 34
